- tested target: Pygo2 PHD finger (PHD–HD1 complex) (Homo sapiens, UniProt Q9BRQ0)
- Sequence (Q9BRQ0 327-387): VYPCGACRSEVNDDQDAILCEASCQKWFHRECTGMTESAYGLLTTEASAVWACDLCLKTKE
- Sequence (Q86UU0 235-263 partner): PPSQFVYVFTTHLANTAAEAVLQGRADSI
- protocol: HSQC NMR titration, intermolecular NOEs, NMR competition with H3 peptide
- Format: binding
- Parameters: with B9L HD1 (BCL9L)

molecule: CCn1c(N)nc2ccccc21 [CF16]
Kd: ~7.3 mM

* * *

- tested target: Pygo2 PHD finger (PHD–HD1 complex) (Homo sapiens, UniProt Q9BRQ0)
- protocol: HSQC NMR titration, intermolecular NOEs
- Assay type: binding
- Parameters: with B9L HD1 (BCL9L)
pKd: −log10 of the molar value.

compound: CN(C)CCn1c(N)nc2ccccc21 [CF18]
tested target: Pygo2 PHD finger (PHD–HD1 complex) (Homo sapiens, UniProt Q9BRQ0)
pKd: ~1.83
